Measured MIC by item
Test system: Staphylococcus aureus 101
Experiment: MIC against Staphylococcus aureus 101
Assay type: cell-based
Details: Table 2; Staphylococcus aureus 101, MRSA- and trimethoprim-resistant; clinical isolate; read-out: MIC Sa101
# value in µg/mL; strip the unit string

Recorded MIC, per entry:
In: Fetch value of MIC on Staphylococcus aureus 101 for "CCOc1cc(Cc2cnc(N)nc2N)cc(OS(=O)(=O)C2CC2)c1-c1ccc(N)c(C)c1" .
Out: 2

In: Fetch value of MIC on Staphylococcus aureus 101 for "CCOc1cc(Cc2cnc(N)nc2N)cc(OS(=O)(=O)CC(C)(C)OC)c1-c1ccc(N)c(C)c1" .
Out: 4

In: Fetch value of MIC on Staphylococcus aureus 101 for "CCOc1cc(Cc2cnc(N)nc2N)cc(OCC)c1-c1cccc(C#N)c1" .
Out: 8

In: Fetch value of MIC on Staphylococcus aureus 101 for "CCOc1cc(Cc2cnc(N)nc2N)cc(OS(=O)(=O)N2CCCC2)c1-c1ccc(N)cc1" .
Out: 1

Next:
In: Fetch value of MIC on Staphylococcus aureus 101 for "CCOc1cc(Cc2cnc(N)nc2N)cc(OCC)c1-c1cccs1" .
Out: 8

In: Fetch value of MIC on Staphylococcus aureus 101 for "CCOc1cc(Cc2cnc(N)nc2N)cc(OS(=O)(=O)C(C)C)c1-c1ccc(N)c(F)c1" .
Out: 2

In: Fetch value of MIC on Staphylococcus aureus 101 for "CCOc1cc(Cc2cnc(N)nc2N)cc(OCC)c1-c1ccc(COCC(=O)N2CCCCC2)s1" .
Out: 8

In: Fetch value of MIC on Staphylococcus aureus 101 for "CCOc1cc(Cc2cnc(N)nc2N)cc(OCC)c1-c1ccc(N)c(C)c1" .
Out: 4

###

Molecular target: purified DHFR of strain 157/4696 of Staphylococcus aureus (Staphylococcus aureus, UniProt P13955)
Sequence (P13955 whole entry): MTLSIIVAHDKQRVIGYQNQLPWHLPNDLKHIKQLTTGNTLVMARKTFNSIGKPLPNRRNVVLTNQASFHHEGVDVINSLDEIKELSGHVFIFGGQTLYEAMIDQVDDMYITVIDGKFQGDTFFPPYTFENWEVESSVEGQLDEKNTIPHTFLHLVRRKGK
Assay: biochemical
metric-name: pIC50
Remember the convention: pIC50 equals -log10 of concentration in molar.

Recorded pIC50, per entry:
In: Provide one value: measured pIC50 of "CCOc1cc(Cc2cnc(N)nc2N)cc(OS(=O)(=O)CC)c1-c1ccc(O)cc1"
Out: 6.74

In: Provide one value: measured pIC50 of "CCOc1cc(Cc2cnc(N)nc2N)cc(OCC)c1-c1ccc(CN2CCCC2)c(F)c1"
Out: 5.74

In: Provide one value: measured pIC50 of "CCOc1cc(Cc2cnc(N)nc2N)cc(OS(=O)(=O)C2CC2)c1-c1ccc(NC)cc1"
Out: 6.68

In: Provide one value: measured pIC50 of "CCOc1cc(Cc2cnc(N)nc2N)cc(OS(=O)(=O)c2ccc(OC)c(F)c2)c1-c1ccc(O)cc1"
Out: 6.26

In: Provide one value: measured pIC50 of "CCOc1cc(Cc2cnc(N)nc2N)cc(OS(=O)(=O)C2CC2)c1-c1ccc(N)c(C)c1"
Out: 6.85

In: Provide one value: measured pIC50 of "CCOc1cc(Cc2cnc(N)nc2N)cc(OCC)c1-c1cccc(NS(C)(=O)=O)c1"
Out: 6.17

In: Provide one value: measured pIC50 of "CCOc1cc(Cc2cnc(N)nc2N)cc(OCC)c1-c1ccc2cc(O)ccc2c1"
Out: 5.77

Okay, now this compound:
In: Provide one value: measured pIC50 of "CCOc1cc(Cc2cnc(N)nc2N)cc(OCC)c1-c1ccc(CN(C)CCF)cc1"
Out: 6.35

###

Molecular target: purified DHFR of strain Sp1/1 of Streptococcus pneumoniae (Streptococcus pneumoniae serotype 4, UniProt Q54801)
Sequence (Q54801 1-168 I100L): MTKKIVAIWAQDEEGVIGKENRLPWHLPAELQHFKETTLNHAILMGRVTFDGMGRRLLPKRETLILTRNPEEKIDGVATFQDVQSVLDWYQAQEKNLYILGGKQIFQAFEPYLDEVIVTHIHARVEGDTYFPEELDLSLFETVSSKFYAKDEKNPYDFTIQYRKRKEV
Format: biochemical
Conditions: Table 1; IC50 against purified DHFR of strain Sp1/1
metric-name: pIC50
Remember the convention: pIC50 equals -log10 of concentration in molar.

Recorded pIC50, per entry:
In: Provide one value: measured pIC50 of CCOc1cc(Cc2cnc(N)nc2N)cc(OS(=O)(=O)C(C)C)c1-c1cccc(N)c1 [Example 14c]
Out: 7.70

In: Provide one value: measured pIC50 of "CCOc1cc(Cc2cnc(N)nc2N)cc(OCC2CC2)c1-c1cccc(N)c1"
Out: 8.68

Next:
In: Provide one value: measured pIC50 of CCOc1cc(Cc2cnc(N)nc2N)cc(OS(=O)(=O)C(C)CC)c1-c1ccc(N)c(C)c1 (centres unmarked) [Example 35e]
Out: 8.34

In: Provide one value: measured pIC50 of CCOc1cc(Cc2cnc(N)nc2N)cc(OS(=O)(=O)C(C)CC)c1-c1cccc(N)c1 (centres unmarked) [Example 14g]
Out: 8.43

In: Provide one value: measured pIC50 of CCOc1cc(Cc2cnc(N)nc2N)cc(OS(=O)(=O)N2CCOCC2)c1-c1ccc(NC)cc1 [Example 26c]
Out: 8.49

In: Provide one value: measured pIC50 of "CCOc1cc(Cc2cnc(N)nc2N)cc(OS(=O)(=O)C(C)C)c1-c1ccc(N)cc1"
Out: 8.25

In: Provide one value: measured pIC50 of CCOc1cc(Cc2cnc(N)nc2N)cc(OS(=O)(=O)C2CCC2)c1-c1ccc(N)c(C)c1 [Example 40c]
Out: 7.72

In: Provide one value: measured pIC50 of CCOc1cc(Cc2cnc(N)nc2N)cc(OS(=O)(=O)C(C)C)c1-c1ccc(N)c(C)c1 [Example 33e]
Out: 7.72

###

Test system: Staphylococcus aureus 101
Assay: MIC against Staphylococcus aureus 101
Type: cell-based
Conditions: Table 2; Staphylococcus aureus 101, MRSA- and trimethoprim-resistant; clinical isolate; read-out: MIC Sa101
metric-name: MIC (µg/mL)
# value in µg/mL; strip the unit string

Recorded MIC, per entry:
In: Provide one value: measured MIC of "CCOc1cc(Cc2cnc(N)nc2N)cc(OCC(C)(C)/C=C/C#N)c1-c1ccc(O)cc1"
Out: 8

In: Provide one value: measured MIC of "CCOc1cc(Cc2cnc(N)nc2N)cc(OS(=O)(=O)C2CC2)c1-c1ccc(CN2CCOCC2)s1"
Out: 4

In: Provide one value: measured MIC of "CCOc1cc(Cc2cnc(N)nc2N)cc(OCC)c1-c1ccc(S(C)(=O)=O)cc1"
Out: 8

Okay, now this molecule:
In: Provide one value: measured MIC of "CCOc1cc(Cc2cnc(N)nc2N)cc(OCC)c1-c1ccc2c(c1)CCCN2"
Out: 4

###

Measured IC50 by item
Target: purified DHFR of strain 157/4696 of Staphylococcus aureus (Staphylococcus aureus, UniProt P13955)
Test: biochemical
# value in nM; strip the unit string

In: Provide one value: measured IC50 of CCCOc1cc(Cc2cnc(N)nc2N)cc(OCCC)c1-c1cccc(N)c1 [Example 51-]
Out: 8500

Next:
In: Provide one value: measured IC50 of CCOc1cc(Cc2cnc(N)nc2N)cc(OS(=O)(=O)CC(C)(C)C)c1-c1ccc(NCCO)cc1 [Example 37-d]
Out: 290

In: Provide one value: measured IC50 of CCOc1cc(Cc2cnc(N)nc2N)cc(OS(=O)(=O)CC(C)(C)OC)c1-c1cccc(N)c1 [Example 39-a]
Out: 390

In: Provide one value: measured IC50 of CCOc1cc(Cc2cnc(N)nc2N)cc(OS(=O)(=O)CC(C)(C)OC)c1-c1ccc(N)c(C)c1 [Example 39-b]
Out: 250

In: Provide one value: measured IC50 of CCOc1cc(Cc2cnc(N)nc2N)cc(OS(=O)(=O)N(C)C)c1-c1cc(N)cc(F)c1 [Example 29-b]
Out: 95

In: Provide one value: measured IC50 of CCOc1cc(Cc2cnc(N)nc2N)cc(OS(=O)(=O)N(C)CC)c1-c1ccc(C)c(N)c1 [Example 31-b]
Out: 130

In: Provide one value: measured IC50 of CCOc1cc(Cc2cnc(N)nc2N)cc(OS(=O)(=O)CC(C)C)c1-c1cccc(N)c1 [Example 14-h]
Out: 320

In: Provide one value: measured IC50 of CCOc1cc(Cc2cnc(N)nc2N)cc(OCC2(/C=C/C#N)CC2)c1-c1ccc(O)cc1 [Example 08-d]
Out: 620

###

Measured MIC by item
Test system: Staphylococcus aureus 101
Assay: MIC against Staphylococcus aureus 101
Format: cell-based
Conditions: Table 2; Staphylococcus aureus 101, MRSA- and trimethoprim-resistant; clinical isolate; read-out: MIC Sa101
# value in µg/mL; strip the unit string

Recorded MIC, per entry:
In: Provide one value: measured MIC of "CCOc1cc(Cc2cnc(N)nc2N)cc(OS(=O)(=O)N(C)C)c1-c1ccc(N)c(C)c1"
Out: 2

In: Provide one value: measured MIC of "CCOc1cc(Cc2cnc(N)nc2N)cc(OS(C)(=O)=O)c1-c1ccc2c(c1)OCO2"
Out: 4

In: Provide one value: measured MIC of "CCOc1cc(Cc2cnc(N)nc2N)cc(OS(=O)(=O)N2CCCCC2)c1-c1ccc(O)cc1"
Out: 1

Next:
In: Provide one value: measured MIC of "CCOc1cc(Cc2cnc(N)nc2N)cc(OS(=O)(=O)N(C)C)c1-c1ccc(CN2CCOCC2)c(F)c1"
Out: 2
